EXPERIMENTAL_READOUT: pKi
pKi is a log-scale quantity: -log10 of the concentration expressed in molar.

The recorded pKi with SULT1A1 (Homo sapiens) for CC(C)Cc1ccc2cc(/C=C/C(N)=O)cnc2n1 was 5.51
